# assay-comment: chemical genetic growth profiling, strain panel (AID 1159580);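 note: tested at 20 µM; growth read once vehicle control cultures reached saturation at 30 °C; 1 = growth at the plate median or of vehicle wells; lower values mean less growth of the strain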
# condition-summary: S. cerevisiae deletion strains, growth OD, locus YJL164C, strain tpk1, hits give low values
Hit rate of the full screen: of about 5,500 compounds, about 2,000 (36%) were called active. Not shown: some 18% with an inconclusive outcome. Some of the results follow.
measured-parameter: normalized growth
// print number alone

The examples below pair each entry with its known result.
{"compound": "O=C1C[C@@H](c2ccc(O)cc2)Oc2cc(O)cc(O)c21", "observed": 0.97}
{"compound": "COc1ccc(-c2coc3c(OC)c(OC)cc(O)c3c2=O)cc1", "observed": 0.997}
{"compound": "C[C@@H]1O[C@@H](O[C@H]2[C@@H](Oc3cc(O)c4c(c3)O[C@H](c3ccc(O)cc3)CC4=O)O[C@H](CO)[C@@H](O)[C@@H]2O)[C@H](O)[C@H](O)[C@H]1O", "observed": 0.98}
{"compound": "S=C=NCc1ccccc1", "observed": 0.0744}

Okay, now this compound:
Query normalized growth for O=C1CC(c2ccc(O)c(O)c2)Oc2cc(O)cc(O)c21 (stereo not given)
0.973

----------
# assay-comment: chemical genetic growth profiling, strain panel (AID 1159580)
# condition-summary: S. cerevisiae deletion strains, growth OD, locus YOR070C, strain gyp1, hits give low values
The whole screen tested about 5,500 compounds, of which about 2,000 (36%) were called active. Inconclusive results (about 18%) are left out. The list shows a part of the results.
measured-parameter: normalized growth
// print number alone

The examples below pair each entry with its known result.
{"compound": "CC[C@H]1OC(=O)C[C@@H](O)[C@H](C)[C@@H](O[C@@H]2O[C@H](C)[C@@H](O[C@H]3C[C@@](C)(O)[C@@H](O)[C@H](C)O3)[C@H](N(C)C)[C@H]2O)[C@@H](CC=O)C[C@@H](C)C(=O)/C=C/C(C)=C/[C@@H]1CO[C@@H]1O[C@H](C)[C@@H](O)[C@@H](OC)[C@H]1OC", "measured-parameter": "normalized growth", "observed": 0.996}
{"compound": "NC[C@@H]1O[C@H](O[C@@H]2[C@@H](CO)OC(O[C@@H]3[C@@H](O)[C@H](N)C[C@H](N)[C@H]3OC3O[C@H](CN)[C@@H](O)[C@H](O)[C@H]3N)[C@@H]2O)[C@H](N)[C@@H](O)[C@@H]1O (stereo partly drawn)", "measured-parameter": "normalized growth", "observed": 1.03}

Okay, now this compound:
Query normalized growth for "COc1ccc(-c2coc3c(O)c(OC)ccc3c2=O)cc1"
0.994

----------
# assay-comment: chemical genetic growth profiling, strain panel (AID 1159580)
# condition-summary: S. cerevisiae deletion strains, growth OD, locus YDR137W, strain rgp1
The campaign covered roughly 5,500 compounds. About 2,000 (36%) were called active. Inconclusive results (about 18%) are left out. Rule as the data show it: active = normalized growth mostly below about 0.91 (no sharp cut-off); inconclusive = no clear call, values can overlap the other calls; inactive = mostly above about 0.92. The list shows a part of the results.
Choose the fitting class; nothing outside active, inactive is accepted.

{"compound": "O=C(/C=C/C=C/c1ccc2c(c1)OCO2)N1CCCCC1", "group-label": "active"}
{"compound": "O=C1C[C@@H](c2ccc(O)cc2)Oc2cc(O)cc(O)c21", "group-label": "inactive"}
{"compound": "COc1ccc(C(=O)c2ccccc2O)c(O)c1", "group-label": "active"}

Assay result, entry "COc1ccc(C(=O)c2ccccc2)c(O)c1" — outcome?
active

Assay result, entry "CCOC(=O)c1ncn2c1CN(C)C(=O)c1cc(F)ccc1-2" — outcome?
inactive

Assay result, entry "CCN(CC)C(=S)SSC(=S)N(CC)CC" — outcome?
active

----------
# assay-comment: chemical genetic growth profiling, strain panel (AID 1159580)
# condition-summary: S. cerevisiae deletion strains, growth OD, locus YHR079C, strain IRE1 (second series), hits give low values
Hit rate of the full screen: of about 5,500 compounds, about 2,000 (36%) were called active. Not shown: some 18% with an inconclusive outcome. Some of the results follow.
measured-parameter: normalized growth

{"molecule": "NC[C@@H]1O[C@H](O[C@@H]2[C@@H](CO)OC(O[C@@H]3[C@@H](O)[C@H](N)C[C@H](N)[C@H]3OC3O[C@H](CN)[C@@H](O)[C@H](O)[C@H]3N)[C@@H]2O)[C@H](N)[C@@H](O)[C@@H]1O (stereo partly drawn)", "observed": "1.02 (inactive)"}
{"molecule": "CO[C@H]1C[C@H](O[C@H]2[C@H](C)[C@@H](OC3O[C@H](C)C[C@H](N(C)C)[C@H]3O)[C@@H](C)C[C@]3(CO3)C(=O)[C@H](C)[C@@H](O)[C@@H](C)[C@@H](C)OC(=O)[C@@H]2C)O[C@@H](C)[C@@H]1O (stereo partly drawn)", "observed": "0.989 (inactive)"}
{"molecule": "CC(C)[N+](C)(CCOC(=O)C1c2ccccc2Oc2ccccc21)C(C)C", "observed": "1.01 (inactive)"}
{"molecule": "CCc1ccc(CCOc2ccc(CC3SC(=O)NC3=O)cc2)nc1 (stereo not drawn)", "observed": "0.993 (inactive)"}
{"molecule": "COc1c(CC=C(C)C)c2c(c3oc(=O)c(-c4ccc(O)cc4)c(O)c13)C=CC(C)(C)O2", "observed": "0.979 (inactive)"}
{"molecule": "CCC1(c2ccc(N)cc2)CCC(=O)NC1=O (stereo not drawn)", "observed": "0.995 (inactive)"}
{"molecule": "CCC1(C)CC(=O)NC1=O (stereo not drawn)", "observed": "1.02 (inactive)"}

Okay, now this molecule:
Query normalized growth for "COc1ccc(-c2c(O)c3cc4c(c(CC=C(C)C)c3oc2=O)OC(C)(C)CC4)cc1"
1.01 (inactive)

----------
Reported normalized growth is given for each of the following molecules.
# assay-comment: chemical genetic growth profiling, strain panel (AID 1159580);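 note: tested at 20 µM; growth read once vehicle control cultures reached saturation at 30 °C; 1 = growth at the plate median or of vehicle wells; lower values mean less growth of the strain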
# condition-summary: S. cerevisiae deletion strains, growth OD, locus YDR162C, strain NBP2, hits give low values
The campaign covered roughly 5,500 compounds. About 2,000 (36%) were called active. Another 18% or so got no clear call; they are omitted. This is one part of the list.
// print number alone

The examples below pair each entry with its known result.
{"smiles-representation": "COc1ccc(-c2c(O)c3cc4c(c(CC=C(C)C)c3oc2=O)OC(C)(C)CC4)cc1", "measured-parameter": "normalized growth", "observed": 0.993}
{"smiles-representation": "COc1c(CC=C(C)C)c2c(c3oc(=O)c(-c4ccc(O)cc4)c(O)c13)C=CC(C)(C)O2", "measured-parameter": "normalized growth", "observed": 0.875}
{"smiles-representation": "COc1c(CC=C(C)C)c2c(c3oc(=O)c(-c4ccc(OC(C)=O)cc4)c(OC(C)=O)c13)C=CC(C)(C)O2", "measured-parameter": "normalized growth", "observed": 1.04}
{"smiles-representation": "CC[C@@H](CO)NCCN[C@@H](CC)CO", "measured-parameter": "normalized growth", "observed": 1.01}

Okay, now this molecule:
Query normalized growth for "CCc1nc(N)nc(N)c1-c1ccc(Cl)cc1"
1.01

----------
# assay-comment: chemical genetic growth profiling, strain panel (AID 1159580);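 note: tested at 20 µM; growth read once vehicle control cultures reached saturation at 30 °C; 1 = growth at the plate median or of vehicle wells; lower values mean less growth of the strain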
# condition-summary: S. cerevisiae deletion strains, growth OD, locus YGR252W, strain gcn5
About 2,000 (36%) of roughly 5,500 compounds were called active. Inconclusive results (about 18%) are left out. Cut-off read from the data, not from the text of the source: active = normalized growth mostly below about 0.91 (no sharp cut-off); inconclusive = no clear call, values can overlap the other calls; inactive = mostly above about 0.92. The list shows a part of the results.
Choose the fitting class; nothing outside 1.0 = active, 0.0 = inactive is accepted.

Here are 5 compounds together with their reported answers.
{"compound": "COc1ccc([C@@H]2CC(=O)c3c(O)cc(O)cc3O2)cc1O", "group-label": 0.0}
{"compound": "COc1c(O)cc2oc3cc(O)c(CC=C(C)C)c(O)c3c(=O)c2c1CC=C(C)C", "group-label": 0.0}
{"compound": "O=C(O)c1cc(=O)c2ccc(Cl)cc2[nH]1", "group-label": 0.0}
{"compound": "CC(C)CC1C(=O)N2CCC[C@H]2C2(O)O[C@](NC(=O)C3C=C4c5cccc6[nH]c(Br)c(c56)C[C@H]4N(C)C3)(C(C)C)C(=O)N12 (some centres not stated)", "group-label": 0.0}
{"compound": "O=C(O)c1cc(=O)c2cc(Cl)ccc2[nH]1", "group-label": 0.0}

Could you now look at the following compound, please?
Assay result, entry "CCCCCCCCCCCCC[N+](C)(C)Cc1ccccc1" — outcome?
1.0

----------
# assay-comment: chemical genetic growth profiling, strain panel (AID 1159580);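 note: tested at 20 µM; growth read once vehicle control cultures reached saturation at 30 °C; 1 = growth at the plate median or of vehicle wells; lower values mean less growth of the strain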
# condition-summary: S. cerevisiae deletion strains, growth OD, locus YNL128W, strain TEP1
Screen size: about 5,500 compounds; about 2,000 (36%) were called active. Roughly 18% stayed inconclusive and do not appear here. Cut-off read from the data, not from the text of the source: active = normalized growth mostly below about 0.91 (no sharp cut-off); inconclusive = no clear call, values can overlap the other calls; inactive = mostly above about 0.92. This is one part of the list.
Choose the fitting class; nothing outside active, inactive is accepted.

{"compound": "S=C=NCc1ccccc1", "group-label": "active"}
{"compound": "CC1(C)S[C@@H]2[C@H](NC(=O)[C@H](NC(=O)N3CCNC3=O)c3ccccc3)C(=O)N2C1C(=O)O (stereo not given in full)", "group-label": "inactive"}
{"compound": "CN1Cc2c(ccc3c2OCO3)C2C(O)Cc3cc4c(cc3C21)OCO4 (stereo not given)", "group-label": "inactive"}

Assay result, entry "O=C(O)COc1cc(Cl)c(Cl)cc1Cl" — outcome?
inactive

The measured values listed here are drawn from PubChem BioAssay AID1159580.
